# System: PXR homodimer (NR concentration 270 nM)
# assay-info: PBM binding z-score (relative to random genomic background probes); higher = stronger binding; sequences stand for … in GC…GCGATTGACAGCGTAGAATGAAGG
Each entry below carries its reported PBM binding z-score.
measured-quantity: PBM binding z-score

{"macromolecule-sequence": "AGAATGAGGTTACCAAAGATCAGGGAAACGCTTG", "measured-quantity": "PBM binding z-score", "result": 0.241}
{"macromolecule-sequence": "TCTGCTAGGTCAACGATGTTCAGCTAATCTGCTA", "measured-quantity": "PBM binding z-score", "result": -0.689}
{"macromolecule-sequence": "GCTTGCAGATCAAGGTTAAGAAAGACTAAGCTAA", "measured-quantity": "PBM binding z-score", "result": -0.42}
{"macromolecule-sequence": "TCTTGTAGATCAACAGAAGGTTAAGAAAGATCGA", "measured-quantity": "PBM binding z-score", "result": 0.0567}
{"macromolecule-sequence": "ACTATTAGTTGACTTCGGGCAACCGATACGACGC", "measured-quantity": "PBM binding z-score", "result": 0.00546}
{"macromolecule-sequence": "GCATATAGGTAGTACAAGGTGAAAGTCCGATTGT", "measured-quantity": "PBM binding z-score", "result": 0.176}
{"macromolecule-sequence": "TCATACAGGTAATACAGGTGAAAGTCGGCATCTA", "measured-quantity": "PBM binding z-score", "result": 0.48}
{"macromolecule-sequence": "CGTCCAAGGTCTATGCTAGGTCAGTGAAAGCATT", "measured-quantity": "PBM binding z-score", "result": -0.113}
{"macromolecule-sequence": "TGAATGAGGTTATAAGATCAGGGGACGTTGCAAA", "measured-quantity": "PBM binding z-score", "result": 0.3}
{"macromolecule-sequence": "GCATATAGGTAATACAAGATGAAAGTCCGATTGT", "measured-quantity": "PBM binding z-score", "result": 0.0386}
{"macromolecule-sequence": "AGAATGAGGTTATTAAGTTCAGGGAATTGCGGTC", "measured-quantity": "PBM binding z-score", "result": 13.8}
{"macromolecule-sequence": "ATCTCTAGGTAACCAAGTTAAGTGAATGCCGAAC", "measured-quantity": "PBM binding z-score", "result": 0.739}
{"macromolecule-sequence": "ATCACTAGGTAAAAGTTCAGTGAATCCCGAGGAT", "measured-quantity": "PBM binding z-score", "result": 1.55}
{"macromolecule-sequence": "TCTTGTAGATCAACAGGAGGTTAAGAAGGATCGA", "measured-quantity": "PBM binding z-score", "result": -0.0185}
{"macromolecule-sequence": "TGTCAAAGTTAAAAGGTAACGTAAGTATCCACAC", "measured-quantity": "PBM binding z-score", "result": 0.361}
{"macromolecule-sequence": "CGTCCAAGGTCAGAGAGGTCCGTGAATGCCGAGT", "measured-quantity": "PBM binding z-score", "result": 1.11}
{"macromolecule-sequence": "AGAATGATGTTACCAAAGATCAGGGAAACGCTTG", "measured-quantity": "PBM binding z-score", "result": -0.411}
{"macromolecule-sequence": "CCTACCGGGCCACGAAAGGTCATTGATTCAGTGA", "measured-quantity": "PBM binding z-score", "result": 2.13}
{"macromolecule-sequence": "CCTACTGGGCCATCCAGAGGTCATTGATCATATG", "measured-quantity": "PBM binding z-score", "result": 2.23}
{"macromolecule-sequence": "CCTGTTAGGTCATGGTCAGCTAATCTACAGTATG", "measured-quantity": "PBM binding z-score", "result": 0.504}
{"macromolecule-sequence": "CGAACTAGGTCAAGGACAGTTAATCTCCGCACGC", "measured-quantity": "PBM binding z-score", "result": 0.185}
{"macromolecule-sequence": "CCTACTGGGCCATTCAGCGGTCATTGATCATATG", "measured-quantity": "PBM binding z-score", "result": -0.0854}
{"macromolecule-sequence": "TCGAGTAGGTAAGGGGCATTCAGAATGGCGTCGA", "measured-quantity": "PBM binding z-score", "result": -0.537}
{"macromolecule-sequence": "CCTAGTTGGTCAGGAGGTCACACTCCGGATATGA", "measured-quantity": "PBM binding z-score", "result": 1.2}
{"macromolecule-sequence": "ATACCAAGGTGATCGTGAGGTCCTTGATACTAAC", "measured-quantity": "PBM binding z-score", "result": 0.00841}
{"macromolecule-sequence": "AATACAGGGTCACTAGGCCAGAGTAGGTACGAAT", "measured-quantity": "PBM binding z-score", "result": 0.432}
{"macromolecule-sequence": "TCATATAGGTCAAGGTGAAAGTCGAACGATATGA", "measured-quantity": "PBM binding z-score", "result": 0.0786}
{"macromolecule-sequence": "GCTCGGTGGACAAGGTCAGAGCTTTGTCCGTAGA", "measured-quantity": "PBM binding z-score", "result": -0.455}
{"macromolecule-sequence": "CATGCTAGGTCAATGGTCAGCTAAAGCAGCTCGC", "measured-quantity": "PBM binding z-score", "result": -0.406}
{"macromolecule-sequence": "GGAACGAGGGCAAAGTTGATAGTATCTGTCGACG", "measured-quantity": "PBM binding z-score", "result": 0.156}
{"macromolecule-sequence": "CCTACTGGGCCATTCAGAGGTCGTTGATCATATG", "measured-quantity": "PBM binding z-score", "result": 0.112}
{"macromolecule-sequence": "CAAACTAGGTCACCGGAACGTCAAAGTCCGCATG", "measured-quantity": "PBM binding z-score", "result": 0.254}
{"macromolecule-sequence": "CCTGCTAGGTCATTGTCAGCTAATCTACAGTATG", "measured-quantity": "PBM binding z-score", "result": -0.0805}
{"macromolecule-sequence": "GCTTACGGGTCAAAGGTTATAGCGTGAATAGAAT", "measured-quantity": "PBM binding z-score", "result": 0.264}
{"macromolecule-sequence": "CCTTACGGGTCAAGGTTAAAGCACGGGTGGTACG", "measured-quantity": "PBM binding z-score", "result": 0.419}
{"macromolecule-sequence": "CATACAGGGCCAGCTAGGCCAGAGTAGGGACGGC", "measured-quantity": "PBM binding z-score", "result": -0.765}
{"macromolecule-sequence": "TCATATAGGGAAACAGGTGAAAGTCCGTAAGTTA", "measured-quantity": "PBM binding z-score", "result": 0.608}
{"macromolecule-sequence": "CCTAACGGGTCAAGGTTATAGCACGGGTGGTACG", "measured-quantity": "PBM binding z-score", "result": 0.496}
{"macromolecule-sequence": "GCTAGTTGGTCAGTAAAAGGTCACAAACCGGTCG", "measured-quantity": "PBM binding z-score", "result": 1.2}
{"macromolecule-sequence": "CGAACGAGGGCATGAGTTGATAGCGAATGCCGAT", "measured-quantity": "PBM binding z-score", "result": -0.235}
{"macromolecule-sequence": "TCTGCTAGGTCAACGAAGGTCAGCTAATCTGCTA", "measured-quantity": "PBM binding z-score", "result": 0.241}
{"macromolecule-sequence": "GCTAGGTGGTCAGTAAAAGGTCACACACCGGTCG", "measured-quantity": "PBM binding z-score", "result": 1.22}
{"macromolecule-sequence": "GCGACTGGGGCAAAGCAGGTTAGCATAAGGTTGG", "measured-quantity": "PBM binding z-score", "result": -0.676}
{"macromolecule-sequence": "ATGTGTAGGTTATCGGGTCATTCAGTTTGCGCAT", "measured-quantity": "PBM binding z-score", "result": 9.38}
{"macromolecule-sequence": "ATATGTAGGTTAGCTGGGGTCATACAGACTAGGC", "measured-quantity": "PBM binding z-score", "result": 3.07}
{"macromolecule-sequence": "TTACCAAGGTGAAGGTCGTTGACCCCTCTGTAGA", "measured-quantity": "PBM binding z-score", "result": 0.313}
{"macromolecule-sequence": "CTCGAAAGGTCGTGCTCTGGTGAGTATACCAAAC", "measured-quantity": "PBM binding z-score", "result": -0.238}
{"macromolecule-sequence": "TGAATGAGGTTATAAGATCAGGGAGCGTTGCAAA", "measured-quantity": "PBM binding z-score", "result": -0.17}
{"macromolecule-sequence": "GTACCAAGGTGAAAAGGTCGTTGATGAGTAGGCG", "measured-quantity": "PBM binding z-score", "result": 0.862}
{"macromolecule-sequence": "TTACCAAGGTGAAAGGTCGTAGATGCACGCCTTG", "measured-quantity": "PBM binding z-score", "result": 0.0928}
{"macromolecule-sequence": "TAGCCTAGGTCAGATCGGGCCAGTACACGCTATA", "measured-quantity": "PBM binding z-score", "result": -0.37}
